These entries and their values trace back to ChEMBL document CHEMBL3098047.

Kindly supply the reported log10(AUC) values for the records listed here.
- assay notes: AUC in Balb/c mouse at 3 mg/kg, iv by LC-MS/MS analysis
- Assay type: ADME, organism-based
- Set-up: dose 3 mg/kg, route intravenous
- measurement setup: plasma
Lab note - AUC converted to log10 from values in ng·h/mL.

[
  {
    "compound": "NC(=O)c1c(F)ccc(OC(CO)c2nc(-c3ccc(C(F)(F)F)cc3)c(Br)o2)c1F (racemic)",
    "experimental value": 3.83
  },
  {
    "compound": "CCc1oc(COc2ccc(F)c(C(N)=O)c2F)nc1-c1ccc(OC)cc1",
    "experimental value": 2.30
  },
  {
    "compound": "CC(Oc1ccc(F)c(C(N)=O)c1F)c1nc(-c2ccc(OC(F)(F)F)cc2)c(Cl)o1 (racemic)",
    "experimental value": 3.20
  },
  {
    "compound": "CCCc1oc(COc2ccc(F)c(C(N)=O)c2F)nc1-c1ccc(Cl)cc1",
    "experimental value": 2.60
  },
  {
    "compound": "CC(Oc1ccc(F)c(C(N)=O)c1F)c1nc(-c2ccc(C(F)(F)F)cc2)c(Br)o1 (racemic)",
    "experimental value": 3.34
  }
]

Please examine the following record next.
Exercise: Give its log10(AUC) value. Item: CC(Oc1ccc(F)c(C(N)=O)c1F)c1nc(-c2ccc(OC(F)(F)F)cc2)c(Br)o1 (racemic)
Key: 3.15
